# Tested on: MDA-MB-468 spheroids with HUVEC/MSC, viability
# assay remarks: Anticancer human tumor MDA-MB-468 cell line growth inhibition [PI3K];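 further: spheroids exposed to agents for seven days before readout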
# details: curve of first compound; second compound 3.16 µM
reported property: IC50 (µM)
Kindly provide the numeric value in µM only, without the unit symbol.

Example entries begin here.
INSERT INTO measurements (compound, reported_property, numeric_value) VALUES
  ('C=CC(=O)N1CCN(c2nc(=O)n(-c3c(C)ccnc3C(C)C)c3nc(-c4c(O)cccc4F)c(F)cc23)C(C)C1 (stereo not given) + Cc1nc(NC(=O)N2CCCC2C(N)=O)sc1-c1ccnc(C(C)(C)C(F)(F)F)c1', 'IC50', 1.26),
  ('CCN1CCN(Cc2ccc(Nc3ncc(F)c(-c4cc(F)c5nc(C)n(C(C)C)c5c4)n3)nc2)CC1 + Cc1nc(NC(=O)N2CCCC2C(N)=O)sc1-c1ccnc(C(C)(C)C(F)(F)F)c1', 'IC50', 0.191);

Now look at this entry.
Enquiry: Which measured IC50 value corresponds to Cn1nccc1Nc1nccc(-c2ccn(C(CO)c3ccc(Cl)c(F)c3)c(=O)c2)n1 (stereo not given) + Cc1nc(NC(=O)N2CCCC2C(N)=O)sc1-c1ccnc(C(C)(C)C(F)(F)F)c1 ?
Return: 1.6

----------
Recorded viability, T/C by entry
# Test system: MDA-MB-468 spheroids with HUVEC/MSC, viability
# assay remarks: Anticancer human tumor MDA-MB-468 cell line growth inhibition [PI3K];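 further: spheroids exposed to agents for seven days before readout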;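 on viability, T/C: 100% = DMSO vehicle control viability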
# details: second compound 1 µM; first compound 10 µM; stronger effect = lower value
// units = %; emit number, no label

INSERT INTO results (molecule, reported_property, numeric_value) VALUES
  ('Cn1ncc(Cl)c1-c1cc(C(=O)NC(CN)Cc2cccc(F)c2)sc1Cl (stereo not given) + CC(Nc1ccc2c(c1)OCCn1cc(N3C(=O)OCC3C(F)F)nc1-2)C(N)=O', 'viability, T/C', 3.04),
  ('CC1(C)CCC(Nc2ncc(C(F)(F)F)c(-c3c[nH]c4c(P(C)(C)=O)c(C#N)ccc34)n2)CN1 (stereo not given) + CC(Nc1ncnc2nc[nH]c12)c1cc2cccc(Cl)c2c(=O)n1-c1ccccc1', 'viability, T/C', 1.16),
  ('CC(Cn1ccc(-c2ccc(C#N)c(Cl)c2)n1)NC(=O)c1cc(C(C)O)[nH]n1 (stereo not given) + Cc1nc(NC(=O)N2CCCC2C(N)=O)sc1-c1ccnc(C(C)(C)C(F)(F)F)c1', 'viability, T/C', 50.5),
  ('CC(C)NCC(C(=O)N1CCN(c2ncnc3c2C(C)CC3O)CC1)c1ccc(Cl)cc1 (stereo not given) + Cc1nc(NC(=O)N2CCCC2C(N)=O)sc1-c1ccnc(C(C)(C)C(F)(F)F)c1', 'viability, T/C', 18),
  ('C[C@@H](NC(=O)c1ncnc(N)c1Cl)c1ncc(C(=O)Nc2cc(C(F)(F)F)c(Cl)cn2)s1 + CC(Nc1ncnc2nc[nH]c12)c1cc2cccc(Cl)c2c(=O)n1-c1ccccc1', 'viability, T/C', 64.5);

Enquiry: # query: viability, T/C of entry CC1(C)CCC(Nc2ncc(C(F)(F)F)c(-c3c[nH]c4c(P(C)(C)=O)c(C#N)ccc34)n2)CN1 (stereo not given) + CC(Nc1ccc2c(c1)OCCn1cc(N3C(=O)OCC3C(F)F)nc1-2)C(N)=O
Return: 1.09

Enquiry: // viability, T/C lookup, key: CC1(C)CCC(CN2CCN(c3ccc(C(=O)NS(=O)(=O)c4ccc(NCC5CCOCC5)c([N+](=O)[O-])c4)c(Oc4cnc5[nH]ccc5c4)c3)CC2)=C(c2ccc(Cl)cc2)C1 + COc1c(OCCCN2CCOCC2)ccc2c3n(c(=NC(=O)c4cnc(N)nc4)nc12)CCN3
Return: 4.03

Enquiry: Please report the recorded viability, T/C for CC1(C)CCC(CN2CCN(c3ccc(C(=O)NS(=O)(=O)c4ccc(NCC5CCOCC5)c([N+](=O)[O-])c4)c(Oc4cnc5[nH]ccc5c4)c3)CC2)=C(c2ccc(Cl)cc2)C1 + Cc1nc(NC(=O)N2CCCC2C(N)=O)sc1-c1ccnc(C(C)(C)C(F)(F)F)c1 .
Return: 7.9

Enquiry: What viability, T/C value was documented for this molecule, CC(Cn1ccc(-c2ccc(C#N)c(Cl)c2)n1)NC(=O)c1cc(C(C)O)[nH]n1 (stereo not given) + CC(Nc1ncnc2nc[nH]c12)c1cc2cccc(Cl)c2c(=O)n1-c1ccccc1 ?
Return: 57.6

Enquiry: Please give the measured viability, T/C for this molecule: CNC(=O)c1ccc(N2C(=S)N(c3ccc(C#N)c(C(F)(F)F)c3)C(=O)C2(C)C)cc1F + CC(Nc1ccc2c(c1)OCCn1cc(N3C(=O)OCC3C(F)F)nc1-2)C(N)=O
Return: 57.1
